test: self-splicing fitness, log relative to wild type (ln ratio); higher = more splicing; Tetrahymena group I intron in knt gene, E. coli kanamycin selection, DiMSum; sequences stand for … in CUCUCU…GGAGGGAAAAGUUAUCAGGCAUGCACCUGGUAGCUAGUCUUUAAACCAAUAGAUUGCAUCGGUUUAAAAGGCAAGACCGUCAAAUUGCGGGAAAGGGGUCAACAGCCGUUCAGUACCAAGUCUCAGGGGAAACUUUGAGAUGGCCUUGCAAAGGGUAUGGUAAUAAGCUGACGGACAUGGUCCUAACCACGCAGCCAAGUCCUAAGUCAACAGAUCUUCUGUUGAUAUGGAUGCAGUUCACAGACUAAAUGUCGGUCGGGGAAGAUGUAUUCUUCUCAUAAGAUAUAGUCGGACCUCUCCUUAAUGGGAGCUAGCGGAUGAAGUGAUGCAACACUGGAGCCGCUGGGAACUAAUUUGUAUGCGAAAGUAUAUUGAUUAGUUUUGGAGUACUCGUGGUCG; conditions: 37 °C;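 note: selection with 25 µg/mL kanamycin versus none on LB agar overnight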
Give self-splicing fitness (ln) for every item shown.

Guide cases for self-splicing fitness (ln), answers given:
| residue-string | data-value |
| --- | --- |
| AGCAAGCAAUAUUACGUGUG | -1.17 |
| CACCAGCAAUAUUACGCGGG | -2.4 |
| AUGCAGCAAUAUUACGCGGG | -2.49 |
| CGCGAGCAAUAUUACGCCGU | -3.01 |
| AAUAAGCAAUAUUACGAAGU | -1.94 |
| CACUAGCAAUAUUACGGAGA | -2.39 |
| UACCAGCAAUAUUACGCCCC | -0.87 |
| CCAGAGCAAUAUUACGCUUG | -2.93 |

Please supply self-splicing fitness (ln) for each of the following items, keeping them in order.
1. UUAUAGCAAUAUUACGGUCU
2. CCGGAGCAAUAUUACGUAUA
3. AGCUAGCAAUAUUACGAUAG
4. AUUUAGCAAUAUUACGUAAA
5. UUCCAGCAAUAUUACGGCUC
6. ACCGAGCAAUAUUACGGAUA
7. GCACAGCAAUAUUACGUAGA
8. CAUUAGCAAUAUUACGAUUU

A)
1. -1.28
2. -2.49
3. -2.84
4. -1.09
5. -0.924
6. -2.33
7. 0.62
8. -1.56

Please supply self-splicing fitness (ln) for each of the following items, keeping them in order.
1. CAUAAGCAAUAUUACGCUAC
2. GAAGAGCAAUAUUACGCCUC

A)
1. -1.79
2. -2.96

Please supply self-splicing fitness (ln) for each of the following items, keeping them in order.
1. CGGAAGCAAUAUUACGAAAU
2. CGCGAGCAAUAUUACGGGAU
3. AAAAAGCAAUAUUACGUUGC
4. UCGGAGCAAUAUUACGGACA
5. CGAAAGCAAUAUUACGCUUU
6. AUAGAGCAAUAUUACGAUAC
7. UUGCAGCAAUAUUACGCACA
8. AAAUAGCAAUAUUACGUGUA

A)
-2.96
-2.59
-2.44
-1.38
-2.7
-0.0688
0.406
-1.44

Please supply self-splicing fitness (ln) for each of the following items, keeping them in order.
1. AUUUAGCAAUAUUACGUGUU
2. GUCUAGCAAUAUUACGCUGA

A)
0.39
-0.707
